- TARGET OR TEST SYSTEM: Cannabinoid receptor 1 (Homo sapiens)
- Sequence (P21554 whole entry): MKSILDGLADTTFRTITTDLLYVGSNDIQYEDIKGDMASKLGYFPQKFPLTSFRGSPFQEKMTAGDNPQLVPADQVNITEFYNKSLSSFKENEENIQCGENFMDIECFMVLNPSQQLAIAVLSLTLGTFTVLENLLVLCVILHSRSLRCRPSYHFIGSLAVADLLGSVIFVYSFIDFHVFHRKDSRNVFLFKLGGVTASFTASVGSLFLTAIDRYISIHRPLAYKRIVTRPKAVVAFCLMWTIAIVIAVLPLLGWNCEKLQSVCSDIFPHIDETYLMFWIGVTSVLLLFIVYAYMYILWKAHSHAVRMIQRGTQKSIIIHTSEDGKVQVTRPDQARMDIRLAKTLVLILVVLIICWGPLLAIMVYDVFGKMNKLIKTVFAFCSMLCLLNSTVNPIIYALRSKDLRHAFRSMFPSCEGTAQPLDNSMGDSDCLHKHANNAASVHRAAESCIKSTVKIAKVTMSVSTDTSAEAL
- PROTOCOL DESCRIPTION: Displacement of [3H]CP-55940 from human recombinant CB1 receptor
QUANTITY NAME: Ki (µM)
Write down the numeric answer in µM and omit the unit.

In: Name the recorded Ki of the item CCCCCCCC/C=C\CCCCCCCC(=O)NCCc1ccc(OC)cc1 in your answer.
Out: 0.4

In: Give the measured Ki for CCCCCCCC/C=C\CCCCCCCCCCCC(=O)NCCc1ccc(OC)cc1OC
Out: 3.7

In: Tell me Ki reported for CCCCCCCC/C=C\CCCCCCCCCCCC(=O)Nc1ccc(N2CCOCC2)cc1
Out: 6.4

In: Fill in reported Ki for this entry: CCCCC/C=C\C/C=C\C/C=C\C/C=C\CCCC(=O)Nc1ccc(O)cc1
Out: 1.76

In: Return the recorded Ki value; entry: CCCCCCCC/C=C\CCCCCCCC(=O)Nc1ccc(OC)cc1
Out: 1.6

In: For the molecule CCCCC/C=C\C/C=C\C/C=C\C/C=C\CCCC(=O)Nc1ccc(OC)cc1 , report Ki.
Out: 0.5

In: Fill in Ki for record CCCCC/C=C\C/C=C\C/C=C\C/C=C\CCCC(=O)NCc1ccc(OC)cc1
Out: 0.6

In: Return Ki for the following molecule: CCCCCCCC/C=C\CCCCCCCCCCCC(=O)NCCc1cc(OC)cc(OC)c1
Out: 5.4

In: Tell me Ki reported for CCCCC/C=C\C/C=C\C/C=C\C/C=C\CCCC(=O)N1CCN(c2ccc(C)c(C)c2)CC1
Out: 0.4

In: Determine its reported Ki: CCCCC/C=C\C/C=C\C/C=C\C/C=C\CCCC(=O)NCCc1ccc(OC)cc1
Out: 2.4

In: Write down Ki measured for item CCCCCCCC/C=C\CCCCCCCC(=O)NCCc1cc(OC)cc(OC)c1
Out: 1.3

In: Quickly give me recorded Ki for CCCCC/C=C\C/C=C\C/C=C\C/C=C\CCCC(=O)N1CCN(c2ccc(Cl)cc2)CC1
Out: 0.6

In: For the molecule CCCCCCCC/C=C/C(=O)NCCc1cc(OC)cc(OC)c1 , give its measured Ki value.
Out: 2.8

In: Tell me Ki reported for CCCCCCCC/C=C\CCCCCCCC(=O)NCc1ccc(OC)cc1
Out: 0.5
